Values from PubChem BioAssay (NCI)

# procedure-text: NCI Yeast Anticancer Drug Screen. Data for the mlh1 rad18 strain (AID 175)
# conditions: S. cerevisiae mlh1 rad18 strain growth inhibition; at 50.0 µM; active compounds read high
# Procedure: Growth inhibition of yeast strains with defined genetic alterations is measured as a screen for potential anti-cancer activity. Selected strains with alterations in DNA damage repair or cell cycle control were exposed to compounds and growth inhibition was measured relative to vehicle treated controls. The strain used in this assay is mlh1 rad18
Compounds without any hit were thinned out: in the full panel of roughly 79,000, 15% have a hit.
Parameter growth inhibition: see the listing below.
Note: unit % is implicit; provide only the numeric part.

compound	growth inhibition, %
O=C(O)C(O)c1ccc(Cl)cc1 (stereo not drawn)	11.2
ClCc1cccnc1	31.7
O=NNc1ncc([N+](=O)[O-])cn1	-8.4
CC(C)CCC1C(=O)N(C)C(=O)N(C)C1=O	2.05
Oc1ccc(Nc2ncnc3nc[nH]c23)cc1CN(CCCl)CCCl	3.65

For record O=CNC(CSC(c1ccccc1)c1ccccc1)C(=O)O (stereo not drawn) the listed growth inhibition is 4.4

For record `N.N.N.N.N.[Co+3].[I-].[N-]=[N+]=[N-]` the listed growth inhibition is -9.05

For record `CCc1ccc([N+](=O)[O-])cc1` the listed growth inhibition is 10.5

For record `Cc1nc2ccccc2c(=O)n1-c1ccccc1` the listed growth inhibition is -3.8

For record `CC(C)(C)c1cc(C=C(C#N)C#N)cc(C(C)(C)C)c1O` the listed growth inhibition is 6.45

For record `C/C=C/CC1(CC)C(=O)NC(=S)NC1=O` the listed growth inhibition is 13.6

For record `COc1ccc(C(=O)O[C@H]2CC[C@@]3(C)[C@@H]4CC[C@H]5[C@]6(O)C[C@H](O)[C@@]7(O)[C@@H](CN8C[C@@H](C)CC[C@H]8[C@@]7(C)O)[C@]6(O)C[C@@]53OC24O)cc1OC` the listed growth inhibition is -5.15

For record `COc1cc2c(c3oc4cccc(O)c4c(=O)c13)[C@@H]1C=CO[C@@H]1O2` the listed growth inhibition is -8.9

###

# procedure-text: NCI Yeast Anticancer Drug Screen. Data for the sgs1 mgt1 strain (AID 161);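 also: 0% = growth of cultures given vehicle only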
# conditions: S. cerevisiae sgs1 mgt1 strain, at 50.0 µM, active compounds read high
The panel holds about 79,000 compounds, 15% with a hit somewhere; the sample as a whole holds those more often.
recorded-metric: growth inhibition (%)
Note: unit % is implicit; provide only the numeric part.

Solved entries:
molecule	recorded-metric	units-text	numeric-readout
CCCCOC(=O)c1ccccc1C(=O)O.[Mn]	growth inhibition	%	-6.15
CCOc1ccccc1C=C(C#N)C#N	growth inhibition	%	19.1
COC(=O)C1C(C)N1P(=O)(OC)OC (stereo not drawn)	growth inhibition	%	-7.55
CC(C)C(C)(O)C#N (stereo not drawn)	growth inhibition	%	2.6
CC(=O)[CH-]C(C)=O.F[P-](F)(F)(F)(F)F.[Co+3].[NH-]CC[NH-].[NH-]CC[NH-]	growth inhibition	%	-12.2
CN1CCC[N+](C)=C1c1ccc(N(C)C)cc1	growth inhibition	%	-4.5

For record `Nc1cccnc1` the listed growth inhibition is 23.8

For record OC(CN1CC1)C(O)CN1CC1 (stereo not drawn) the listed growth inhibition is -34

###

# procedure-text: NCI Yeast Anticancer Drug Screen. Data for the mlh1 rad18 strain (AID 175)
# conditions: S. cerevisiae mlh1 rad18 strain growth inhibition; at 50.0 µM
This is part of a sample that, as a whole, favours compounds with a hit. Of some 79,000 tested, about 15% had one in any assay. Activity calls are given as the source filed them. Rule as the data show it: active = growth inhibition above about 70%; inactive = the rest.
Mark one answer only. Choices: active, inactive

Worked examples follow.
molecule	group-label
Oc1ccccc1C=NCCN=Cc1ccccc1O.[Zn+2]	inactive
CN(C)Cc1c[nH]c2ccc(F)cc12	inactive
Cc1cc(Cl)ccc1O	inactive
CN1CCC(O)(c2ccccc2)C(c2ccccc2)C1 (configuration not stated)	inactive
Nc1ccc(C(=O)O)cc1[As](O)O	inactive

Name the outcome recorded for `COc1ccc(CN2CCCN(Cc3ccc(OC)cc3)C2c2ccc(N(CCCl)CCCl)cc2)cc1` in the assay. inactive

Name the outcome recorded for `CCC[CH2][Sn]([Br])([c]1ccccc1)[c]1ccccc1` in the assay. active

Name the outcome recorded for `CC[As](=O)(O)CCCc1ccccc1` in the assay. inactive

Name the outcome recorded for `Cc1ccc(C(=O)O[C@H](C(=O)O)[C@H](OC(=O)c2ccc(C)cc2)C(=O)O)cc1` in the assay. inactive

Name the outcome recorded for `CCCC[S][Sn-]([CH2]CCC)([CH2]CCC)[CH2]CCC` in the assay. active

Name the outcome recorded for `CCOP(=O)(NC(C)(C)C)OCC` in the assay. inactive

Name the outcome recorded for `CCOP(=O)(OCC)/C(C#N)=C/c1ccc(C)o1` in the assay. inactive
